System: SK-MEL-2 melanoma
assaySummary: NCI-60 one-dose screen, 48 h (100 = growth as untreated, 0 = no growth, -100 = all killed)
testParameters: 10 µM unless noted
Compounds without any hit were thinned out: in the full panel of roughly 83,000, 20% have a hit.
readoutLabel: growth (%)
Just the number please, in %, no unit attached.

Report growth for CCCCCOc1ccc(/C=N/Nc2cc(C)nc3ccc(Br)cc23)cc1 please.
105

Report growth for COc1ccc(Cc2nc3cc(OC)c(OC)cc3c(=O)[nH]2)cc1 please.
105

Report growth for CN(C)C(=O)c1cc2cnc(Nc3ccc(-c4csc5c(=O)cc(N6CCOCC6)oc45)cc3)nc2n1C1CCCC1 please.
-58.6

Report growth for Clc1cc(Cl)cc(N2N=C(c3cccc(Nc4ccncc4)c3)CC2c2ccccc2)c1 (stereo not given) please.
97.1

Report growth for Cc1cccc(Oc2ccc(Nc3ncnc4ccc(NC(=O)CN(C)C)cc34)cc2Cl)c1 please.
84.2

----------
I'd be grateful if you could share measured growth for these entries.
Test system: OVCAR-8 ovarian
assaySummary: NCI-60 one-dose screen, 48 h (100 = growth as untreated, 0 = no growth, -100 = all killed)
testParameters: 10 µM unless noted
Compounds without any hit were thinned out: in the full panel of roughly 83,000, 20% have a hit.
Just the number please, in %, no unit attached.

Recall the recorded growth for OC1(c2ccc(Cl)c(C(F)(F)F)c2)CCN(CCCC(c2ccc(F)cc2)c2ccc(F)cc2)CC1 with OVCAR-8 ovarian and state it.
-71.7

Recall the recorded growth for CS(=O)(=O)c1ccc(-c2cc3c(oc2=O)-c2ccccc2OC3O)cc1 (stereo not given) with OVCAR-8 ovarian and state it.
95.9

Recall the recorded growth for Cc1c2c(cc[n+]1Cc1ccc(F)cc1)c1ccc(OCc3cccc(F)c3)cc1n2Cc1cccc(F)c1 with OVCAR-8 ovarian and state it.
-81.6

Recall the recorded growth for O=C1C(=O)c2c(nc3ncccn23)-c2ccccc21 with OVCAR-8 ovarian and state it.
-60.7

Recall the recorded growth for CC(C)[N+](C)(CCOC(COc1ccccc1)COc1ccccc1)C(C)C with OVCAR-8 ovarian and state it.
104

Recall the recorded growth for COc1ccc(C2CC(c3cccc(Nc4ccncc4)c3)=NN2c2cc(Cl)cc(Cl)c2)cc1 (stereo not given) with OVCAR-8 ovarian and state it.
-31.8

Recall the recorded growth for CC1=CC[C@@H]2CC[C@]3(C)[C@H](CC[C@@H]4[C@@]5(C)CCCNC(C)(C)[C@@H]5CC[C@]43C)[C@H]2[C@@H]1C with OVCAR-8 ovarian and state it.
-87.3

Recall the recorded growth for CCCCCCCCCCN=C(N)N=C(N)N with OVCAR-8 ovarian and state it.
43.5

Recall the recorded growth for O=C1/C(=C\c2cn(Cc3ccccc3)c3ccc(Br)cc23)c2ccccc2N1c1c(Cl)cccc1Cl with OVCAR-8 ovarian and state it.
98

Recall the recorded growth for CCOC(=O)c1ccc(Nc2ccnc(SCC(=O)c3ccc(C#N)cc3)n2)cc1 with OVCAR-8 ovarian and state it.
22.8

Recall the recorded growth for COc1cc(C2CC(c3cccc(Nc4ccncc4)c3)=NN2c2cc(Cl)cc(Cl)c2)cc(OC)c1OC (stereo not given) with OVCAR-8 ovarian and state it.
-8.55

Recall the recorded growth for COc1ccc(Cn2nc(-c3ccccc3)c3c2CCc2cnoc2-3)cc1 with OVCAR-8 ovarian and state it.
80.8

Recall the recorded growth for NC(=S)N/N=C(\c1ccc(Cl)cc1)C1CC1 with OVCAR-8 ovarian and state it.
70.9

Recall the recorded growth for O=C1CCCN1c1cccc2cccnc12 with OVCAR-8 ovarian and state it.
103

Recall the recorded growth for C=C(C)[C@@H]1CC[C@]2(C(=O)NCCCN(CCC#N)CCC#N)CC[C@]3(C)[C@H](CC[C@@H]4[C@@]5(C)CCC(=O)C(C)(C)[C@@H]5CC[C@]43C)[C@@H]12 with OVCAR-8 ovarian and state it.
97.9

Recall the recorded growth for O=C(CN1CCOCC1)Nc1ccc2ncnc(Nc3ccc(Oc4cccc(F)c4)c(Cl)c3)c2c1 with OVCAR-8 ovarian and state it.
68.6

Recall the recorded growth for CCN1C(=O)N(CC)C2C1NN=c1s/c(=C3\C(=O)Nc4ccccc43)c(=O)n12 (stereo not given) with OVCAR-8 ovarian and state it.
31.6

Recall the recorded growth for NC(=S)N/N=C(/c1ccccc1)c1ccccc1N with OVCAR-8 ovarian and state it.
64.7

Recall the recorded growth for c1ccc(Cn2nc3c(c2-c2ccccc2)-c2oncc2CC3)cc1 with OVCAR-8 ovarian and state it.
86.8

Recall the recorded growth for Cn1c2c(Cl)c(Cl)ccc2c2cc(N)[nH]c(=O)c21 with OVCAR-8 ovarian and state it.
73.7
